Values from PubChem BioAssay AID1963982

# Test system: 313798-341-R-J2-PDC spheroids, viability
# Experiment description: Anticancer human tumor 313798-341-R-J2-PDC patient-derived cervical squamous cell carcinoma cell line growth inhibition [PI3K]
# Run parameters: curve of first compound; second compound 1 µM; spheroids with HUVEC and MSC
Experimental endpoint: pIC50
Numbers only, as −log10 of the molar value.

>>> numeric_result("CC(C)n1nc(-c2ccc3oc(N)nc3c2)c2c(N)ncnc21 + CC(Nc1ccc2c(c1)OCCn1cc(N3C(=O)OCC3C(F)F)nc1-2)C(N)=O")
8.73

What value of pIC50 has been recorded for this entry: CC1(C)CCC(CN2CCN(c3ccc(C(=O)NS(=O)(=O)c4ccc(NCC5CCOCC5)c([N+](=O)[O-])c4)c(Oc4cnc5[nH]ccc5c4)c3)CC2)=C(c2ccc(Cl)cc2)C1 + CC(Nc1ccc2c(c1)OCCn1cc(N3C(=O)OCC3C(F)F)nc1-2)C(N)=O
6.22

---

# Tested on: 313798-341-R-J2-PDC spheroids, viability
# Experiment description: Anticancer human tumor 313798-341-R-J2-PDC cell line growth inhibition [PI3K];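 also: spheroids exposed to compounds for seven days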;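 as to viability, T/C: 100% = DMSO vehicle control viability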
# Run parameters: second compound 3.16 µM; first compound 0.316 µM; stronger effect = lower value; spheroids with HUVEC and MSC
What viability, T/C was measured for each of the following?

Completed entries (count: 2):
>>> result("CCCS(=O)(=O)Nc1ccc(F)c(C(=O)c2c[nH]c3ncc(-c4ccc(Cl)cc4)cc23)c1F + CC(Nc1ncnc2nc[nH]c12)c1cc2cccc(Cl)c2c(=O)n1-c1ccccc1")
"118%"
>>> result("CCN1CCN(Cc2ccc(Nc3ncc(F)c(-c4cc(F)c5nc(C)n(C(C)C)c5c4)n3)nc2)CC1 + Cc1nc(NC(=O)N2CCCC2C(N)=O)sc1-c1ccnc(C(C)(C)C(F)(F)F)c1")
"58.4%"

Okay, next one:
Which viability, T/C reading was recorded for the molecule C#Cc1c(F)ccc2cc(O)cc(-c3ncc4c(N5CC6CCC(C5)N6)nc(OCC56CCCN5CC(F)C6)nc4c3F)c12 (stereo not drawn) + Cc1nc(NC(=O)N2CCCC2C(N)=O)sc1-c1ccnc(C(C)(C)C(F)(F)F)c1 ?
59.1%

---

# Tested on: 313798-341-R-J2-PDC spheroids, viability
# Experiment description: Anticancer human tumor 313798-341-R-J2-PDC cell line growth inhibition [PI3K];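 also: spheroids exposed to compounds for seven days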
# Run parameters: curve of first compound; second compound 1 µM; spheroids with HUVEC and MSC
So I've got a bunch of compounds here, and I need their pIC50 values.
One number for each entry, as −log10 of the molar value.

Field: example entries. Status: answers known.
>>> numeric_result("CC(Cn1ccc(-c2ccc(C#N)c(Cl)c2)n1)NC(=O)c1cc(C(C)O)[nH]n1 (stereo unspecified) + CC(Nc1ccc2c(c1)OCCn1cc(N3C(=O)OCC3C(F)F)nc1-2)C(N)=O")
5.35
>>> numeric_result("CC(C)n1nc(-c2ccc3oc(N)nc3c2)c2c(N)ncnc21 + CC(Nc1ncnc2nc[nH]c12)c1cc2cccc(Cl)c2c(=O)n1-c1ccccc1")
7.30

Let us move to another entry and its pIC50.
Give 313798-341-R-J2-PDC spheroids, viability pIC50 for Cn1ncc(Cl)c1-c1cc(C(=O)NC(CN)Cc2cccc(F)c2)sc1Cl (stereo unspecified) + Cc1nc(NC(=O)N2CCCC2C(N)=O)sc1-c1ccnc(C(C)(C)C(F)(F)F)c1
6.24

---

What pIC50 was measured for each of the following?
# System: 313798-341-R-J2-PDC spheroids, viability
# Experiment description: Anticancer human tumor 313798-341-R-J2-PDC cell line growth inhibition [PI3K];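 also: spheroids exposed to compounds for seven days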
# Run parameters: curve of first compound; second compound 1 µM; spheroids with HUVEC and MSC
pIC50: −log10 of the molar value.

See these solved cases before continuing.
>>> result("CNC(=O)c1ccc(N2C(=S)N(c3ccc(C#N)c(C(F)(F)F)c3)C(=O)C2(C)C)cc1F + COc1c(OCCCN2CCOCC2)ccc2c3n(c(=NC(=O)c4cnc(N)nc4)nc12)CCN3")
"> 7.50"
>>> result("CCN1CCN(Cc2ccc(Nc3ncc(F)c(-c4cc(F)c5nc(C)n(C(C)C)c5c4)n3)nc2)CC1 + COc1c(OCCCN2CCOCC2)ccc2c3n(c(=NC(=O)c4cnc(N)nc4)nc12)CCN3")
"> 8.50"
>>> result("Cn1cnc2c(F)c(Nc3ccc(Br)cc3Cl)c(C(=O)NOCCO)cc21 + COc1c(OCCCN2CCOCC2)ccc2c3n(c(=NC(=O)c4cnc(N)nc4)nc12)CCN3")
"> 8.02"
>>> result("CNC(=O)c1ccc(N2C(=S)N(c3ccc(C#N)c(C(F)(F)F)c3)C(=O)C2(C)C)cc1F + Cc1nc(NC(=O)N2CCCC2C(N)=O)sc1-c1ccnc(C(C)(C)C(F)(F)F)c1")
"< 5.00"
>>> result("CCCS(=O)(=O)Nc1ccc(F)c(C(=O)c2c[nH]c3ncc(-c4ccc(Cl)cc4)cc23)c1F + Cc1nc(NC(=O)N2CCCC2C(N)=O)sc1-c1ccnc(C(C)(C)C(F)(F)F)c1")
5.34

Answer for every listed entry: what is its pIC50? The entries follow.
1. C#Cc1c(F)ccc2cc(O)cc(-c3ncc4c(N5CC6CCC(C5)N6)nc(OCC56CCCN5CC(F)C6)nc4c3F)c12 (stereo unspecified) + CC(Nc1ccc2c(c1)OCCn1cc(N3C(=O)OCC3C(F)F)nc1-2)C(N)=O
2. CC(C)NCC(C(=O)N1CCN(c2ncnc3c2C(C)CC3O)CC1)c1ccc(Cl)cc1 (stereo unspecified) + CC(Nc1ccc2c(c1)OCCn1cc(N3C(=O)OCC3C(F)F)nc1-2)C(N)=O

< 5.00
7.13

# return pIC50 for each item in the list
1. Cn1cnc2c(F)c(Nc3ccc(Br)cc3Cl)c(C(=O)NOCCO)cc21 + Cc1nc(NC(=O)N2CCCC2C(N)=O)sc1-c1ccnc(C(C)(C)C(F)(F)F)c1
2. C[C@@H](NC(=O)c1ncnc(N)c1Cl)c1ncc(C(=O)Nc2cc(C(F)(F)F)c(Cl)cn2)s1 + CC(Nc1ccc2c(c1)OCCn1cc(N3C(=O)OCC3C(F)F)nc1-2)C(N)=O
3. CC(C)n1nc(-c2ccc3oc(N)nc3c2)c2c(N)ncnc21 + COc1c(OCCCN2CCOCC2)ccc2c3n(c(=NC(=O)c4cnc(N)nc4)nc12)CCN3
4. CC1(C)CCC(Nc2ncc(C(F)(F)F)c(-c3c[nH]c4c(P(C)(C)=O)c(C#N)ccc34)n2)CN1 (stereo unspecified) + CC(Nc1ncnc2nc[nH]c12)c1cc2cccc(Cl)c2c(=O)n1-c1ccccc1

1: 5.55; 2: > 7.50; 3: > 9.50; 4: > 7.50

---

# Test system: 313798-341-R-J2-PDC spheroids, viability
# Experiment description: Anticancer human tumor 313798-341-R-J2-PDC cell line growth inhibition [PI3K];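 also: spheroids exposed to compounds for seven days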;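 as to viability, T/C: 100% = DMSO vehicle control viability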
# Run parameters: second compound 3.16 µM; first compound 0.316 µM; stronger effect = lower value; spheroids with HUVEC and MSC
Each record is given Met if its reported viability, T/C is strictly below 90%. Records at or above 90% are given Not met.

Before answering, review these 6 worked examples.
>>> class("CC(C)NCC(C(=O)N1CCN(c2ncnc3c2C(C)CC3O)CC1)c1ccc(Cl)cc1 (stereo not given) + Cc1nc(NC(=O)N2CCCC2C(N)=O)sc1-c1ccnc(C(C)(C)C(F)(F)F)c1")
"Met"
>>> class("C=CC(=O)N1CCN(c2nc(=O)n(-c3c(C)ccnc3C(C)C)c3nc(-c4c(O)cccc4F)c(F)cc23)C(C)C1 (stereo not given) + Cc1nc(NC(=O)N2CCCC2C(N)=O)sc1-c1ccnc(C(C)(C)C(F)(F)F)c1")
"Met"
>>> class("C#Cc1c(F)ccc2cc(O)cc(-c3ncc4c(N5CC6CCC(C5)N6)nc(OCC56CCCN5CC(F)C6)nc4c3F)c12 (stereo not given) + CC(Nc1ncnc2nc[nH]c12)c1cc2cccc(Cl)c2c(=O)n1-c1ccccc1")
"Not met"
>>> class("C[C@@H](NC(=O)c1ncnc(N)c1Cl)c1ncc(C(=O)Nc2cc(C(F)(F)F)c(Cl)cn2)s1 + Cc1nc(NC(=O)N2CCCC2C(N)=O)sc1-c1ccnc(C(C)(C)C(F)(F)F)c1")
"Met"
>>> class("CC(Cn1ccc(-c2ccc(C#N)c(Cl)c2)n1)NC(=O)c1cc(C(C)O)[nH]n1 (stereo not given) + Cc1nc(NC(=O)N2CCCC2C(N)=O)sc1-c1ccnc(C(C)(C)C(F)(F)F)c1")
"Met"
>>> class("Cn1nccc1Nc1nccc(-c2ccn(C(CO)c3ccc(Cl)c(F)c3)c(=O)c2)n1 (stereo not given) + Cc1nc(NC(=O)N2CCCC2C(N)=O)sc1-c1ccnc(C(C)(C)C(F)(F)F)c1")
"Met"

Answer whether the molecule Cn1ncc(Cl)c1-c1cc(C(=O)NC(CN)Cc2cccc(F)c2)sc1Cl (stereo not given) + CC(Nc1ncnc2nc[nH]c12)c1cc2cccc(Cl)c2c(=O)n1-c1ccccc1 has viability, T/C strictly less than 90%
Met

Input C[C@@H](NC(=O)c1ncnc(N)c1Cl)c1ncc(C(=O)Nc2cc(C(F)(F)F)c(Cl)cn2)s1 + CC(Nc1ncnc2nc[nH]c12)c1cc2cccc(Cl)c2c(=O)n1-c1ccccc1 ; condition: viability, T/C strictly below 90%. Does it hold?
Not met

Decide: viability, T/C of CC(Cn1ccc(-c2ccc(C#N)c(Cl)c2)n1)NC(=O)c1cc(C(C)O)[nH]n1 (stereo not given) + CC(Nc1ncnc2nc[nH]c12)c1cc2cccc(Cl)c2c(=O)n1-c1ccccc1 strictly below 90%?
Not met
